// data source = ChEMBL document CHEMBL3885861

Species: Rattus norvegicus
Assay: Open TG-GATES - Regimen: Daily Repeat
Format: toxicity, organism-based, Sprague-Dawley
Set-up: regimen Daily Repeat, gender Male, age 6 weeks
Details: in vivo, po, 0 mg/kg, […], tissue Plasma, route gavage, dose level Control, time 28 day
measurement type: ALP
Reply with the number and its unit after it.

Answered examples (8):
INSERT INTO assay_data (molecule, measurement_type, test_result) VALUES
  ('O=C(N[C@H](CO)[C@H](O)c1ccc([N+](=O)[O-])cc1)C(Cl)Cl', 'ALP', '1089.6 IU/L'),
  ('C[C@](N)(Cc1ccc(O)c(O)c1)C(=O)O', 'ALP', '1221.8 IU/L'),
  ('Nc1nc(N)c2nc(-c3ccccc3)c(N)nc2n1', 'ALP', '1077.6 IU/L'),
  ('CCc1oc2ccccc2c1C(=O)c1cc(I)c(O)c(I)c1', 'ALP', '606.6 IU/L'),
  ('CC(=O)Oc1cc(C(C)C)c(OCCN(C)C)cc1C', 'ALP', '1031.5 IU/L'),
  ('CC(C)C(=O)Nc1ccc([N+](=O)[O-])c(C(F)(F)F)c1 [FLUTAMIDE]', 'ALP', '578 IU/L'),
  ('Oc1ncnc2[nH]ncc12', 'ALP', '602.4 IU/L'),
  ('CCN1CCCC1CNC(=O)c1cc(S(N)(=O)=O)ccc1OC (stereo unspecified) [SULPIRIDE]', 'ALP', '975.6 IU/L');

The recorded ALP for entry `CCSCC[C@H](N)C(=O)O` equals 506.2 IU/L

Memo: `C#C[C@]1(O)CC[C@H]2[C@@H]3CCc4cc(O)ccc4[C@H]3CC[C@@]21C` , reported ALP: 1125 IU/L

Kindly note the recorded ALP for `O=C(O)c1cccnc1` , which is 1086.6 IU/L
